Biological target: Cytochrome P450 1A2 (Homo sapiens) (UniProt P05177)
Sequence (P05177 whole entry, looked up): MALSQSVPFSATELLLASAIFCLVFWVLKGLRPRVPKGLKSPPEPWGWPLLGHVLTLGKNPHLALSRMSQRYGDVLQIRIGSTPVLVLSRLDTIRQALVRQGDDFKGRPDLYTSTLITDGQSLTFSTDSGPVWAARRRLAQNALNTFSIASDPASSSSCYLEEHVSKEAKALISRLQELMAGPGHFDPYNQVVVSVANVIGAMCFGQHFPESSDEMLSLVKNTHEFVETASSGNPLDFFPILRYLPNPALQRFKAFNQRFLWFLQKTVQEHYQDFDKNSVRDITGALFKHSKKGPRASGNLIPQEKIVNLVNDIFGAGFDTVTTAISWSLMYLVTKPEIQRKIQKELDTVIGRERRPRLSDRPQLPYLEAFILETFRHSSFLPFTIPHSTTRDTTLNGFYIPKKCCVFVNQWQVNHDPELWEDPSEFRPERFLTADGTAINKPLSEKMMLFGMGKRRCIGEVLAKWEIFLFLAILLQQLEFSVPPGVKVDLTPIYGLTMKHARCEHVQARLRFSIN
Assay: p450-cyp1a2 (AID 410)
Conditions: recombinant CYP1A2, luciferin-ME demethylation, luminescence; series mostly up to 57 µM
Protocol: The P450 gene superfamily is involved in metabolism and the clearance of xenobiotics. This assay used human CYP1A2 to measure the demethylation of luciferin 6' methyl ether (Luciferin-ME; Promega-Glo) to luciferin. The luciferin is then measured by luminescence after the addition of a luciferase detection regeant. Luciferin-ME concentration in the assay was equal to its Km for CYP1A2. NCGC Assay Protocol Summary: […]
Results filed as inconclusive are left out. The source made the active and inactive calls. Calls follow the shape of the full dose curve.
Your response should consist of one outcome taken from 1 (active), -1 (inactive)

Q. Hi, sorry to bother you, what did the test record for c1ccc2sc(C3(N4CCCCC4)CCCCC3)cc2c1 ?
A. -1

Q. Please indicate how the test categorized CC(=O)NCCc1c[nH]c2ccccc12 .
A. 1

Q. Field: outcome | Entry: NCc1cc(=O)[nH]o1
A. -1

Q. For CCCN1CCC[C@H](c2cccc(O)c2)C1 , what call appears in the results of this test?
A. -1

Q. What call does the record list for COC(=O)[C@@H](N)CCCN=C(N)N[N+](=O)[O-] ?
A. -1

Q. Test call for this compound, please: NCCc1c[nH]c2ccccc12
A. 1

Q. Hi team, can someone confirm the assay call for Cn1cnc(CCN)c1 ?
A. -1

Q. How was CCCN(CCC)[C@@H]1CCc2ccc(O)cc2C1 classified in this test?
A. -1

Q. What outcome does the record of this test show for COc1ccc2c(c[n+](C)c3c4cc5c(cc4ccc23)OCO5)c1OC ?
A. 1

Q. Entry COc1ccc(C(=O)c2c(C)n(CCN3CCOCC3)c3cc(I)ccc23)cc1 : call = ?
A. 1

Q. Kindly provide the recorded test outcome for the following compound: CC(C)Oc1cccnc1N(C)C1CCN(Cc2ccccc2)CC1
A. -1

Q. Which outcome did this test record for the compound C[C@]12N[C@H](Cc3ccccc31)c1ccccc12 ?
A. -1
